# Assay Comment: chemical genetic growth profiling, strain panel (AID 1159580);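 further: tested at 20 µM; growth read once vehicle control cultures reached saturation at 30 °C; 1 = growth at the plate median or of vehicle wells; lower values mean less growth of the strain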
# Settings: S. cerevisiae deletion strains, growth OD, locus YER111C, strain swi4, hits give low values
The campaign covered roughly 5,500 compounds. About 2,000 (36%) were called active. Not shown: some 18% with an inconclusive outcome. Some of the results follow.
Quantity Kind: normalized growth
Lab note: write the figure by itself, no unit.

Qu. Endpoint output: normalized growth of CC(CCC(=O)O)[C@H]1CCC2C3CC[C@@H]4C[C@H](O)CC[C@]4(C)C3C=C[C@@]21C (some centres not stated) . Value?
Ans. 1

Qu. Endpoint output: normalized growth of CC(=O)O[C@@H]1CC2C(C)(C)[C@H](O)C=C[C@]2(C)C2CC[C@]3(C)C(=CC(=O)O[C@H]3c3ccoc3)[C@@]21C (some centres not stated) . Value?
Ans. 0.975

----------
Quick reference for normalized growth among some compounds
# Assay Comment: chemical genetic growth profiling, strain panel (AID 1159580);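 further: tested at 20 µM; growth read once vehicle control cultures reached saturation at 30 °C; 1 = growth at the plate median or of vehicle wells; lower values mean less growth of the strain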
# Settings: S. cerevisiae deletion strains, growth OD, locus YMR263W, strain SAP30, hits give low values
About 2,000 (36%) of roughly 5,500 compounds were called active. Inconclusive results (about 18%) are left out. The list shows a part of the results.
Lab note: write the figure by itself, no unit.

Reference set, count: 3
Qu. Endpoint output: normalized growth of N#CCCC1(CCC#N)c2ccccc2-c2ccccc21 . Value?
Ans. 1.02

Qu. Endpoint output: normalized growth of Cc1[nH]c2ccc(O)cc2c1CCN . Value?
Ans. 1.01

Qu. Endpoint output: normalized growth of C=C1c2cccc(O)c2C(O)=C2C(=O)[C@]3(O)C(O)=C(C(N)=O)C(=O)[C@@H](N(C)C)[C@@H]3[C@@H](O)[C@H]12 . Value?
Ans. 0.976

Continuing:
Qu. Endpoint output: normalized growth of O=C1c2ccccc2-c2n[nH]c3cccc1c23 . Value?
Ans. 0.981

Qu. Endpoint output: normalized growth of C[N+]1(C)CCC(OC(=O)C(c2ccccc2)c2ccccc2)CC1 . Value?
Ans. 0.987

Qu. Endpoint output: normalized growth of COC(=O)C/C(N)=C(\C#N)C(=O)OC . Value?
Ans. 1.02

Qu. Endpoint output: normalized growth of CC1c2cccc(O)c2C(O)=C2C(=O)C3(O)C(O)=C(C(N)=O)C(=O)C(N(C)C)C3C(O)C21 (configuration not stated) . Value?
Ans. 0.986

----------
# Assay Comment: chemical genetic growth profiling, strain panel (AID 1159580);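 further: tested at 20 µM; growth read once vehicle control cultures reached saturation at 30 °C; 1 = growth at the plate median or of vehicle wells; lower values mean less growth of the strain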
# Settings: S. cerevisiae deletion strains, growth OD, locus YOR265W, strain rbl2
In all, about 5,500 compounds went through this assay and about 2,000 (36%) were called active. Another 18% or so got no clear call; they are omitted. No stated cut-off is given here; in the data, active means normalized growth mostly below about 0.91 (no sharp cut-off); inconclusive means no clear call, values can overlap the other calls; inactive means mostly above about 0.92. This is one part of the list.
Allowed answers: 1.0 = active, 0.0 = inactive

# count of solved cases: 3
Qu. Any idea what this test logged for CC(=O)N[C@@H](Cc1c[nH]c2ccccc12)C(N)=O ?
Ans. 0.0

Qu. Any idea what this test logged for N=C(N)N ?
Ans. 0.0

Qu. Any idea what this test logged for C=C1c2c(Cl)ccc(O)c2C(O)=C2C(=O)[C@]3(O)C(O)=C(C(N)=O)C(=O)[C@@H](N(C)C)[C@@H]3[C@@H](O)[C@H]12 ?
Ans. 0.0

Turning to the following compound.
Qu. Any idea what this test logged for COc1cc(C/C=C/c2ccccc2)c(OC)cc1O ?
Ans. 0.0
